meta.source: ChEMBL document CHEMBL3414430

The reader will find pIC50 measurements below, all made with Protein deacetylase HDAC6 (Homo sapiens, UniProt Q9UBN7).
Sequence (Q9UBN7 whole entry): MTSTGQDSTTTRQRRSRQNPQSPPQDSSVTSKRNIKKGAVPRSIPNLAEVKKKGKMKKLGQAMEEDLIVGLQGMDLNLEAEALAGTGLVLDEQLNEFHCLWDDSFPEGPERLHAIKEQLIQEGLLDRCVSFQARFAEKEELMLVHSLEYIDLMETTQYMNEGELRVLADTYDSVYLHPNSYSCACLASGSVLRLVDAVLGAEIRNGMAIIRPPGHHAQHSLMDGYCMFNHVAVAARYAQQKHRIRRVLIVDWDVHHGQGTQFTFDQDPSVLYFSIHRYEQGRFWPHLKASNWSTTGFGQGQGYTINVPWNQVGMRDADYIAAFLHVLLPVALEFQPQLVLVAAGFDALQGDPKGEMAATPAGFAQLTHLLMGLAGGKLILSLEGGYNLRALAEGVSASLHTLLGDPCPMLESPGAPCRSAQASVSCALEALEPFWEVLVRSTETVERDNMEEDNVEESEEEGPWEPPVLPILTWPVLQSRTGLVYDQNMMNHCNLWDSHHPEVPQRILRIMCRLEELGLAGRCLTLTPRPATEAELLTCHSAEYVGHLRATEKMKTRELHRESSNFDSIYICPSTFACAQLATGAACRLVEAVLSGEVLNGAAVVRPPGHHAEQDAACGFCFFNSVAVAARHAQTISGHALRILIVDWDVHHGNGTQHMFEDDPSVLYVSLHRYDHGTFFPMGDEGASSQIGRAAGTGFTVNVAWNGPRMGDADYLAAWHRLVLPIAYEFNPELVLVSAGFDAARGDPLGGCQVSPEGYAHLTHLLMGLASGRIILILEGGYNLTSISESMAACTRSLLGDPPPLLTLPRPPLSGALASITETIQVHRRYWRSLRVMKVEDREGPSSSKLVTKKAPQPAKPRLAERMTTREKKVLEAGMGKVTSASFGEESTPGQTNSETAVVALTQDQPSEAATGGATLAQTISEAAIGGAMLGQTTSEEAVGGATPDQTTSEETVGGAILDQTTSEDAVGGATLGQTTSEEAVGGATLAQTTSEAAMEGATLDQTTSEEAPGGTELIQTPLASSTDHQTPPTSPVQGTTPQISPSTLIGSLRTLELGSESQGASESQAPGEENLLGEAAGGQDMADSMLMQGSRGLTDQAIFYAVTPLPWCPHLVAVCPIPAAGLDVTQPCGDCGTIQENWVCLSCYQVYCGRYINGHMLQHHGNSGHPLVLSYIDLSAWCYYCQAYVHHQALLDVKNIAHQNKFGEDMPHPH
pIC50: −log10 of the molar value.
assay readout: pIC50

Worked cases, answers included:
O=C(NO)c1ccc(NC2CCN(c3cccc(Cl)c3)C2=O)cc1 (stereo unspecified)	7.05
O=C(NO)c1ccc(NC2CCN(c3ccc(C(F)(F)F)cc3)C2=O)cc1 (stereo unspecified)	6.60
O=C(NO)c1ccc(NC2CCN(c3ccccc3)C2=O)cc1 (stereo unspecified)	6.42
N#Cc1ccc(N2CCC(Nc3ccc(C(=O)NO)cc3)C2=O)cc1 (stereo unspecified)	7.00

[P] O=C(NO)c1ccc(NC2CCN(c3ccccc3Cl)C2=O)cc1 (stereo unspecified)
[Q] O=C(NO)c1ccc(NC2CCN(c3ccc(Cl)cc3)C2)cc1 (stereo unspecified)
For the two items P and Q , which reports the higher pIC50 value? API: response body contains the label of the selected item.
P

###

# reported solubility; entries follow
Experiment: Solubility of the compound in PBS measured after overnight incubation by LYSA assay
Assay type: physicochemical

O=C(NO)c1ccc(NC2CCN(Cc3ccccc3)C2=O)cc1 (centres undefined)	> 385 µg/mL
O=C(NO)c1ccc(NC2CCN(c3ccc(Cl)cc3)C2=O)c(Cl)c1 (centres undefined)	< 1 µg/mL
CN(C)CCOc1cccc(N2CCC(Nc3ccc(C(=O)NO)cc3)C2=O)c1 (centres undefined)	> 400 µg/mL

// O=C(NO)c1ccc(NC2CCN(CCc3ccccc3)C2=O)cc1 (centres undefined) : solubility value = 63 µg/mL

// O=C(CCCCCCC(=O)Nc1ccccc1)NO [VORINOSTAT] : solubility value = > 385 µg/mL

###

Test: Solubility of the compound in PBS measured after overnight incubation by LYSA assay
Assay type: physicochemical
assay readout: solubility (µg/mL)

[P] O=C(NO)c1ccc(NC2CCN(c3ccccc3)C2=O)cc1 (centres undefined)
[Q] CC1(Nc2ccc(C(=O)NO)cc2)CCN(c2ccccc2)C1=O (centres undefined)
Among P and Q , whose measured solubility is the smaller figure? API: response body contains the label of the selected item.
P
